target: human GLP-1R receptor (Homo sapiens, UniProt P43220, L260F); assay: CHOK1 GLP-1R cAMP Assay; details: CHO-K1 cell line stably expressing human GLP-1R (Leu260Phe variant); HTRF cAMP; agonist activity
Sequence (P43220 24-463 L260F): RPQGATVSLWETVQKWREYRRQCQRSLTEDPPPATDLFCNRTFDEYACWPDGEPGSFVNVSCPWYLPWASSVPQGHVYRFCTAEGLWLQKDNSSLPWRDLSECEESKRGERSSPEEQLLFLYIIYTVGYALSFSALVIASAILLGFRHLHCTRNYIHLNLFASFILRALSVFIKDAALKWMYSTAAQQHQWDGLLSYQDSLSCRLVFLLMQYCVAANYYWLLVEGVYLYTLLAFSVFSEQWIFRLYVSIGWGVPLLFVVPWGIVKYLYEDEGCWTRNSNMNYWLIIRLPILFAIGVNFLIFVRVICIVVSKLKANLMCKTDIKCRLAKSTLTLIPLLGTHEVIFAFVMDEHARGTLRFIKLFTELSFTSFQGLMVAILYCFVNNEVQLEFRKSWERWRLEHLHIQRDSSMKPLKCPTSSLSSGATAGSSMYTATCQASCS
Provide the recorded pEC50 for the entries that follow.
One number for each entry, as −log10 of the molar value.

COc1cc(C(=O)O)cc2c1nc(CN1C[C@@H]3[C@H](C1)[C@H]3c1cccc3c1O[C@](C)(c1ccc(Cl)cc1F)O3)n2CC1CCO1 (relative stereo) [Example 2] | 7.85
COc1cc(C(=O)O)cc2c1nc(CN1C[C@@H]3[C@H](C1)[C@H]3c1cccc3c1O[C@](C)(c1ccc(Cl)cn1)O3)n2CC1CCO1 (single isomer, unassigned) [Example 4b] | 7.21
CCn1cncc1Cn1c(CN2C[C@@H]3[C@H](C2)[C@H]3c2cccc3c2O[C@](C)(c2ccc(Cl)cc2F)O3)nc2c(F)cc(C(=O)O)cc21 (relative stereo) [Example 15] | 8.07
CC1(c2ccc(Cl)cc2F)Oc2cccc([C@H]3[C@@H]4CN(Cc5nc6ccc(C(=O)O)cc6n5CC5CCO5)C[C@@H]43)c2O1 (stereo partly drawn) [Example 1] | 6.74
CC1(c2ccc(Cl)cn2)Oc2cccc([C@H]3[C@@H]4CN(Cc5nc6ccc(C(=O)O)cc6n5CC5CCO5)C[C@@H]43)c2O1 (stereo partly drawn) [Example 3] | 6.59
COc1cc(C(=O)O)cc2c1nc(CN1C[C@@H]3[C@H](C1)[C@H]3c1cccc3c1O[C@](C)(c1ccc(Cl)cn1)O3)n2CC1CCO1 (single isomer, unassigned) [Example 4a] | 6.55
C[C@@]1(c2ccc(Cl)cn2)Oc2cccc([C@H]3[C@@H]4CN(Cc5nc6c(F)cc(C(=O)O)cc6n5C[C@@H]5CCO5)C[C@@H]43)c2O1 (relative stereo) [Example 9] | 7.40
COc1cc(C(=O)O)cc2c1nc(CN1C[C@@H]3[C@H](C1)[C@H]3c1c(F)ccc3c1OC(C)(c1ccc(Cl)cn1)O3)n2C[C@@H]1CCO1 (stereo partly drawn) [Example 6] | 7.51

Q. Fill in pEC50 for record C[C@@]1(c2ccc(C#N)cc2F)Oc2cccc([C@H]3[C@@H]4CN(Cc5nc6c(F)cc(C(=O)O)cc6n5C[C@@H]5CCO5)C[C@@H]43)c2O1 (relative stereo) [Example 11]
A. 7.21
